# System: Internal ribosome entry site (IRES)
# assay.comment: Binding affinity to Hepatitis C virus IRES RNA subdomain 2a by mass spectrometry assay
# Design: species or system Hepacivirus hominis
value.type: Kd

>>> print(df.to_string())
                                   molecule  experimental_result
0  CN(C)CCCn1c(N)nc2ccc3c(c21)CC(CN(C)C)CO3 (configuration not stated)              0.86 µM

Turning now to a further record.
Lab book: Kd of CN(C)CCCn1c(N)nc2ccccc21 noted as 100 µM
